Origin of values: PubChem BioAssay (NCI)

Recorded TGI values for a group of compounds are listed next.
- System: RXF 393 renal
- test method notes: NCI tumour cell line growth inhibition, 48 h

Below, 2 compounds whose answers are already recorded.
>>> measured_value("Nc1nc2ncn(CC(O)COC(=O)c3ccccc3)c2c(=O)[nH]1 (stereo not drawn)")
"> 100 µM"
>>> measured_value("CC(C)(C)OC(=O)NC(CS(=O)(=O)O)C(=O)O (stereo not drawn)")
"> 100 µM"

We now examine a further compound.
In: Suppose we examine the compound `CCSc1nc(-c2cccs2)nc2ccc(I)cc12` ; what TGI value has been reported?
Out: > 100 µM

----------
Recorded TGI values for a group of compounds are listed next.
- Tested on: COLO 205 colon
- test method notes: NCI tumour cell line growth inhibition, 48 h

Below, 5 compounds whose answers are already recorded.
>>> measured_value("O=C(O)COc1ccc(C(=O)/C(SS/C(C(=O)c2ccc(OCC(=O)O)c(Cl)c2Cl)=C2\\C=C(c3ccccc3Cl)SS2)=C2/C=C(c3ccccc3Cl)SS2)c(Cl)c1Cl")
"> 77.1 µM"
>>> measured_value("COc1ccc(C(=C2C(=O)N(c3ccccc3)C(=O)C2=C(C)C)c2ccc(OC)cc2)cc1")
"> 33.3 µM"
>>> measured_value("COC(CC1(OC)OC(=O)C=C1N)OC (stereo unspecified)")
"> 100 µM"
>>> measured_value("O=C(O)c1nc2ccccc2nc1NCc1ccc(F)cc1")
"93.5 µM"
>>> measured_value("COc1ccc(/C=C2\\N=C(c3ccccc3)OC2=O)cc1OC(C)=O")
"> 100 µM"

In: Suppose we examine the compound COc1ccc(/C=C2\CCC(Cc3ccccc3)(CN(C)C)C2=O)cc1 (stereo unspecified) ; what TGI value has been reported?
Out: > 74.8 µM

In: Suppose we examine the compound `C[N+](C)(C)CCOP(=O)([O-])OCCNC(=O)c1ccc2ccccc2c1` ; what TGI value has been reported?
Out: > 100 µM

In: Suppose we examine the compound `COCCOC1=C(Cl)C(=O)c2c(O)ccc(O)c2C1=O` ; what TGI value has been reported?
Out: 2.34 µM

In: Suppose we examine the compound `CCn1c(O)c(C=Nc2ccccc2)s/c1=N/Nc1nc(-c2ccc(O)c(O)c2)cs1` ; what TGI value has been reported?
Out: > 100 µM

In: Suppose we examine the compound `COc1cc(NC(=O)c2ccccc2Nc2ccnc(C(F)(F)F)c2)cc(OC)c1OC` ; what TGI value has been reported?
Out: > 100 µM

In: Suppose we examine the compound COC(=O)NC1C(C)OC(OC2C/C=C(/C)C3C=CC4C(OC5CC(OC6CC(OC7CC(O)C(O)C(C)O7)C(OC7CC(O)C(OC)C(C)O7)C(C)O6)C(O)C(C)O5)C(C)CC(C)C4C3(C)/C(O)=C3\C(=O)OC4(CC(C)C(CO)=CC4/C=C\2C)C3=O)CC1(C)[N+](=O)[O-] (stereo unspecified) ; what TGI value has been reported?
Out: 36.2 µM

----------
Recorded TGI values for a group of compounds are listed next.
- Tested on: HCT-15 colon
- test method notes: NCI tumour cell line growth inhibition, 48 h
Give the value in µM but do not write µM after it.

Below, 6 compounds whose answers are already recorded.
>>> measured_value("O=C1C(Br)=CC2(C=C1Br)CCNc1c(O)c3c4c(c12)=NCCC=4C=N3")
0.197
>>> measured_value("CCCCCCCCCCCC(=O)OC(COC(N)=O)COc1ccc(Cl)cc1 (stereo not drawn)")
91.3
>>> measured_value("CC(=O)Oc1ccc(/C=C/C(=O)OCCOC(=O)/C=C/c2ccc(OC(C)=O)c(OC(C)=O)c2)cc1OC(C)=O")
33.8
>>> measured_value("O=C1/C(=C/c2ccccc2[N+](=O)[O-])COc2ccc(O)c(O)c21")
1.15
>>> measured_value("OCc1ccc(N(Cc2ccc(F)cc2)CC2CCC2)cc1Cl")
25
>>> measured_value("COc1c2ccccc2c(O)c2c(=O)ccn(C)c12")
19.6

In: Suppose we examine the compound `CO/N=C(\C)c1cccc(Nc2nc3ccccc3c3occc23)c1` ; what TGI value has been reported?
Out: 24.5

In: Suppose we examine the compound `O=c1c2cc(S(=O)(=O)O)ccc2nc(COc2ccc(Oc3ccc(Cl)cc3Cl)cc2)n1C(=S)Nc1ccc(Cl)cc1` ; what TGI value has been reported?
Out: 50.5

----------
- Tested on: HCC-2998 colon
- test method notes: NCI tumour cell line growth inhibition, 48 h
*1 amine or outer side, *2 acyl side, *3 side chain or, on linkers, in order; H or OH if unused. Where a SMILES comes first, the peptide text is derived from it. The star is where a group is joined. γGlu = O=C(O)[CH](CCC(=O)[*:2])N[*:1]; NHOH = ON*
property: TGI

Below, 3 compounds whose answers are already recorded.
>>> measured_value("CCSc1nnc(-c2ccccc2)nc1Cc1ccc(OC)cc1")
"> 100 µM"
>>> measured_value("CCOC(=O)C(NC(=O)c1cccc(Cl)c1)(N1CCN(c2cc3c(cc2F)c(=O)c(C(=O)O)cn3C2CC2)CC1)C(F)(F)F (stereo unspecified)")
"34.8 µM"
>>> measured_value("COc1ccc2c(c1)/C(=C\\c1c(Cl)n(-c3ccccc3)c3ccccc13)C(=O)N2")
"22.2 µM"

In: Suppose we examine the compound CCOC(=O)CNC(=O)C(CCC(=O)NO)NC(=O)CCC(N)C(=O)O (stereo unspecified) (γGlu-Glu(NHOH)-Gly-OEt; configuration not given here) ; what TGI value has been reported?
Out: > 100 µM

In: Suppose we examine the compound COCOc1c(C(OCOC)c2cnc(Sc3ccccc3)n2C)ccc(OC)c1OC (stereo unspecified) ; what TGI value has been reported?
Out: > 100 µM

In: Suppose we examine the compound `Nc1nc(OCC2CCCCC2)c2[nH]cnc2n1` ; what TGI value has been reported?
Out: > 67.8 µM

In: Suppose we examine the compound CC(C)(C)OC(=O)NC(CS(=O)(=O)O)C(=O)O (stereo unspecified) ; what TGI value has been reported?
Out: > 100 µM

In: Suppose we examine the compound `CS(=O)(=O)N1CCc2c(-c3cnc(N)nc3)nc(N3CCOCC3)nc21` ; what TGI value has been reported?
Out: > 73.5 µM

In: Suppose we examine the compound `CO/N=C(\C)c1cccc(Nc2nc3ccccc3c3occc23)c1` ; what TGI value has been reported?
Out: 28.8 µM

In: Suppose we examine the compound `C[N+]1(C)C[C@@H](O)C[C@@H]1C(=O)[O-]` ; what TGI value has been reported?
Out: > 100 µM

In: Suppose we examine the compound O=C(/C=C/c1ccccc1)OCC1=C[C@@H](O)[C@@H]2C=CO[C@@H](OC3OC(CO)C(O)C(O)C3O)[C@H]12 (stereo partly specified) ; what TGI value has been reported?
Out: > 100 µM

----------
Recorded TGI values for a group of molecules are listed next.
- Tested on: MDA-N
- test method notes: NCI tumour cell line growth inhibition, 48 h
Where a SMILES comes first, the peptide text is derived from it. [ ]: non-standard residue; d: D form. The star is where a group is joined. Phe(4-NO2) = N[CH](Cc1ccc([N+](=O)[O-])cc1)C(=O)O; Boc = CC(C)(C)OC(=O)*

>>> measured_value("CCCCc1ccc(Nc2nc(Cl)c3ncn(C4CC(Oc5ccc(C)cc5)C(COc5ccc(C)cc5)O4)c3n2)cc1 (stereo unspecified)")
"> 100 µM"
>>> measured_value("O=c1[nH]c(SCc2ccccc2[N+](=O)[O-])nc2nc[nH]c12")
"> 100 µM"
>>> measured_value("COC(=O)CCC(NC(=O)OC(C)(C)C)C(=O)NC(Cc1ccc([N+](=O)[O-])cc1)C(=O)NC(CCC(=O)OC)C(=O)OC (stereo unspecified) (Boc-Glu(OMe)-[Phe(4-NO2)]-Glu(OMe)-OMe; configuration not given here)")
"> 100 µM"

In: Suppose we examine the molecule CC(=O)OCC1OC(Oc2cc(C)c(O)cc2C/C=C(\C)CC/C=C(\C)C[C@@H](C=C(C)C)OC(C)=O)C(O)C(OC(C)=O)C1OC(C)=O (stereo partly specified) ; what TGI value has been reported?
Out: > 50 µM

In: Suppose we examine the molecule COc1ccc(/C=C2\CCC(Cc3ccccc3)(CN(C)C)C2=O)cc1 (stereo unspecified) ; what TGI value has been reported?
Out: > 100 µM

In: Suppose we examine the molecule CC1CC(Br)C(=O)O1 (stereo unspecified) ; what TGI value has been reported?
Out: > 100 µM

----------
- System: PC-3 prostate
- test method notes: NCI tumour cell line growth inhibition, 48 h
property: GI50

Below, 2 molecules whose answers are already recorded.
>>> measured_value("N#Cc1c(N)c(C#N)c2c(c1-c1ccc(Cl)cc1)COc1ccc(F)cc1-2")
"> 50 µM"
>>> measured_value("Cc1[nH]n(-c2cccc(Cl)c2)c(=O)c1/C=C1\\C=c2ccccc2=CC1=O")
"> 100 µM"

We now examine a further molecule.
In: Item: `O=C(CSc1ncc(-c2ccccc2)n1-c1ccccc1)Nc1ccc(-c2nc3ccccc3s2)cc1` Test system: PC-3 prostate Read-out: GI50 Value: ?
Out: > 100 µM
